As shown below, each of these molecules has a reported inhibition zone (IZ) value.
# Test system: Staphylococcus aureus
# Test: Antibacterial activity against Staphylococcus aureus ATCC 6538 after 24 hr by disk diffusion method
# Format: functional
Value type: inhibition zone (IZ)

>>> result("C/C(=N\\n1c(-c2ccccc2)nc2cc(Cl)ccc2c1=O)c1ccc(O)cc1")
"15 mm"
>>> result("COc1cc(/C=N/n2c(-c3ccccc3)nc3cc(Cl)ccc3c2=O)ccc1O")
"15 mm"
>>> result("C/C(=N\\n1c(-c2ccccc2)nc2cc(Cl)ccc2c1=O)c1ccc(Cl)cc1")
"15 mm"
>>> result("O=C(O)c1cn(C2CC2)c2cc(N3CCNCC3)c(F)cc2c1=O [CIPROFLOXACIN]")
"17 mm"
